Source: patent US20240269298A1

- ASSAY_NOTES: Pharmacokinetic test in mice
- Assay type: in vivo
- EXPERIMENTAL_CONDITIONS: male, ICR, mouse, po, administration i.g. (10 mg/kg), plasma
Answer NO if AUC(0-t) is under 30000 ng·h/mL, and YES if it is 30000 ng·h/mL or more.

See these solved cases before continuing.
- COc1cc(N2CCN(C[C@H]3CCN(c4ccc5c(c4)C(=O)N(C4CCC(=O)NC4=O)C5=O)C3)CC2)c(-c2cnn(C)c2)cc1Nc1ncc(Br)c(Nc2ccc(-c3ccccc3)cc2P(C)(C)=O)n1 (some centres unmarked): YES
- COc1cc(N2CCC3(CCN(CC4CCN(c5cc6c(cc5F)C(=O)N(C5CCC(=O)NC5=O)C6=O)CC4)CC3)CC2)c(-c2cnn(C)c2)cc1Nc1ncc(Br)c(Nc2ccc(-c3ccccc3)cc2P(C)(C)=O)n1 (centres unmarked): NO
- COc1cc(N2CCN(CC3CCN(c4ccc5c(c4)C(=O)N(C4CCC(=O)NC4=O)C5=O)CC3)CC2)c(-c2cnn(C)c2)cc1Nc1ncc(Br)c(Nc2ccc(-c3ccccc3F)cc2P(C)(C)=O)n1 (centres unmarked): YES
- COc1cc(N2CCC(N3CCN(CC4CCN(c5ccc6c(c5)C(=O)N(C5CCC(=O)NC5=O)C6=O)CC4)CC3)CC2)c(-c2cnn(C)c2)cc1Nc1ncc(Br)c(Nc2ccc(C)c(C)c2P(C)(C)=O)n1 (centres unmarked): NO

Could you now look at the following compound, please?
Prompt line: Record COc1cc(N2CCN(C[C@@H]3CCN(c4ccc5c(c4)C(=O)N(C4CCC(=O)NC4=O)C5=O)C3)CC2)c(-c2cnn(C)c2)cc1Nc1ncc(Br)c(Nc2ccc(-c3ccccc3)cc2P(C)(C)=O)n1 (some centres unmarked) ; criterion: AUC(0-t) no lower than 30000 ng·h/mL. Met?
Response line: YES
